Reported TGI values are given for each entry in this list.
- Test system: MALME-3M melanoma
- experiment_description: NCI tumour cell line growth inhibition, 48 h
# value in µM; strip the unit string

compound="CC(=O)N1c2ccccc2C2=NN=C(N(C)C)SC21 (stereo unspecified)" value_measured=12.9
compound=O=C(CCl)Nc1ccccc1SCc1cc(Cl)cc2c1OCOC2 value_measured=5.96

Shift focus to the following entry.
Provide TGI, recorded with MALME-3M melanoma, of C=C1C(=O)OC2C1C(OC(=O)/C(C)=C/C)CC(O)(CCl)C1C(OC(C)=O)C=C(C)C21O (stereo unspecified) 14.9

====

- System: SR leukemia
- experiment_description: NCI tumour cell line growth inhibition, 48 h
metric_name: TGI (µM)
# value in µM; strip the unit string

structure_as_smiles=COc1cc(-c2cc(C(=O)Nc3nc4ccccc4s3)nc3cc(-c4ccccc4)nn23)cc(OC)c1OC result_units=µM value_measured=52.5

Shift focus to the following entry.
Specify TGI for N#Cc1c(-c2cccc(Br)c2)cc(-c2ccc(Cl)cc2)nc1N and stop. 46.3
